- measurement-target: BRG-1 (Homo sapiens, UniProt P51532)
- Sequence (P51532 whole entry): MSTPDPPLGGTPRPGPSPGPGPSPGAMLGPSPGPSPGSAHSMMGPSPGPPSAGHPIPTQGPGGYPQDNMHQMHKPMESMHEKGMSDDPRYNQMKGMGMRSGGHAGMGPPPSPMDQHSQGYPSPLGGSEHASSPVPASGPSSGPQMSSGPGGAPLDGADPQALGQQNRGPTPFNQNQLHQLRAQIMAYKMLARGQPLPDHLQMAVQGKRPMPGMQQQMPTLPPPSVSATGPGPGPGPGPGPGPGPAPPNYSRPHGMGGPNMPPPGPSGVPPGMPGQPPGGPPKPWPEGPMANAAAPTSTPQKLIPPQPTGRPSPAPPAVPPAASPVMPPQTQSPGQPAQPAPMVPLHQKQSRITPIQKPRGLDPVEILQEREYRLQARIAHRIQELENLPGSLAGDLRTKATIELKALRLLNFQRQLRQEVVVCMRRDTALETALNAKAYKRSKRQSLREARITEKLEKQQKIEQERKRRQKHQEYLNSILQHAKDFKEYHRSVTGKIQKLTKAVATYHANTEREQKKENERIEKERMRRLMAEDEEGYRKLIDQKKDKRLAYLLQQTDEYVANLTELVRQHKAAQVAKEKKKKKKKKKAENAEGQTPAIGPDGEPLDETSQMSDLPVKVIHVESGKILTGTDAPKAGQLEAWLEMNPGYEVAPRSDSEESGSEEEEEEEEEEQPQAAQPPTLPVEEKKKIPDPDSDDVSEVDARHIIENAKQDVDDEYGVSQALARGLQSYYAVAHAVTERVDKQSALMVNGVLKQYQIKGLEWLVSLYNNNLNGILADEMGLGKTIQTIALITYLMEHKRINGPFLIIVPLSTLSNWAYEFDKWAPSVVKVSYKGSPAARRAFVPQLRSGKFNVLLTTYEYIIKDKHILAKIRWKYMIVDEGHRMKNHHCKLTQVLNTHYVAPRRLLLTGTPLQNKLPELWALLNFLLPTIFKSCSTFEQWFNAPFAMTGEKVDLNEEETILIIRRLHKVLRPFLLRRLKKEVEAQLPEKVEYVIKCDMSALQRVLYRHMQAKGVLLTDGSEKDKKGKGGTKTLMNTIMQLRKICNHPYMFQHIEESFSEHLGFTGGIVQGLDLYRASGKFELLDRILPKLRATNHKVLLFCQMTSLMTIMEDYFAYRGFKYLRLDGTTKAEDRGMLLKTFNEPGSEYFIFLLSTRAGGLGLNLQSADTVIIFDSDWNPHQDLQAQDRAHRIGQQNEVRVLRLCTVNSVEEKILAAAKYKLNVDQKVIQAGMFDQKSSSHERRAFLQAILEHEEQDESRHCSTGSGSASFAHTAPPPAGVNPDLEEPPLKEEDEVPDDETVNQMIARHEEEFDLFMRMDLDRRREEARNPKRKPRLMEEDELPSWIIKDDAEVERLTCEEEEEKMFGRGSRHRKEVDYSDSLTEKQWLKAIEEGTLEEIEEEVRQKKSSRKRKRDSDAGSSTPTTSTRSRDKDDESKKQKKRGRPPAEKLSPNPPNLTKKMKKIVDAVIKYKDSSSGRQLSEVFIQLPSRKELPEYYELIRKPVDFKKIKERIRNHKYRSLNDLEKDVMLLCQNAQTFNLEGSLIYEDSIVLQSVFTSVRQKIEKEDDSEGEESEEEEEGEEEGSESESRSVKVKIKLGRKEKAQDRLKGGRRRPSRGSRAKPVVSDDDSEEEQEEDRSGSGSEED
- assay-protocol: ATPase catalytic activity assay (ADP-Glo), BRG-1
pIC50: −log10 of the molar value.
Catalogue of pIC50 values

The cases that follow already have their pIC50 on record.
[[record]]
smiles_record = "C[C@@]1(C#N)COCc2ccc(C(=O)NCc3cc4c(cn3)CCN(c3ccc(=O)n(C5CC5)n3)C4)cc21"
measurement_target = "BRG-1 (Homo sapiens, UniProt P51532)"
measure_name = "pIC50"
result = "6.00 to 6.30"

[[record]]
smiles_record = "Cn1ccc2ccc(-c3ccc4cnc(CNC(=O)c5ccc6c(c5)[C@](C)(C#N)COC6)cc4n3)nc2c1=O"
measurement_target = "BRG-1 (Homo sapiens, UniProt P51532)"
measure_name = "pIC50"
result = "< 6.00"

[[record]]
smiles_record = "CN(C)c1cccc([C@H]2C[C@H](c3ccnc(CNC(=O)c4ccc5c(c4)[C@](C)(C#N)COC5)c3)C2)n1"
measurement_target = "BRG-1 (Homo sapiens, UniProt P51532)"
measure_name = "pIC50"
result = "< 6.00"


Find the recorded pIC50 belonging to Cn1ncc2ccc(-c3ccc4cnc(CNC(=O)c5ccc6c(c5)[C@](C)(C#N)COC6)cc4n3)cc2c1=O and report it. 6.30 to 7.00

Entry under review: CN1Cc2nc(-c3ccc4cnc(CNC(=O)c5ccc6c(c5)[C@](C)(C#N)COC6)cc4n3)ccc2C1=O . Reported pIC50? 6.30 to 7.00

Reported pIC50 for C[C@@]1(C#N)COCc2ncc(C(=O)NCc3cc4nc(-c5cncc(C6CC6)n5)ccc4cn3)cc21 : what is it? 6.30 to 7.00

Form field: reported pIC50 of C[C@@]1(F)COCc2ccc(C(=O)NCc3cc4nc(-c5cccc(C6(O)COC6)n5)ccc4cn3)cc21 6.00 to 6.30

====

- measurement-target: BRG-1 (Homo sapiens, UniProt P51532)
- assay-protocol: ATPase catalytic activity assay (ADP-Glo), BRG-1
- experimental-conditions: 1 h, read-out: BRG1 Max % Inhibition, ADP-Glo, 30 nM BRG-1, 400 μM ATP
Could you label it Condition met if measured Emax is 90% or higher, and Condition not met otherwise?

Previously resolved entries follow.
[[record]]
compound = "[2H]C1([2H])OC[C@@](C)(F)c2cc(C(=O)NCc3cc4nc(-c5cncc(C6CC6)n5)ccc4cn3)cnc21 [Compound 211]"
qualitative_label = "Condition not met"

[[record]]
compound = "C[C@@]1(O)COCc2ccc(C(=O)NCc3cc4nc(-c5ccccc5)sc4cn3)cc21 [Compound 119]"
qualitative_label = "Condition not met"

[[record]]
compound = "C[C@@]1(C#N)COCc2ccc(C(=O)NCc3cc([C@H]4C[C@H](c5cccc(C6CC6)n5)C4)ccn3)cc21 [Compound 77]"
qualitative_label = "Condition met"

[[record]]
compound = "CO[C@H]1CCN(c2nccc(-c3ccc4cnc(CNC(=O)c5ccc6c(c5)[C@](C)(C#N)COC6)cc4n3)n2)C1 [Compound 339]"
qualitative_label = "Condition met"

[[record]]
compound = "COc1ncccc1-c1nc2cc(CNC(=O)c3ccc4c(c3)[C@](C)(C#N)COC4)ncc2s1 [Compound 354]"
qualitative_label = "Condition not met"


Could you verify whether the entry Cc1c(-c2ccc3cnc(CNC(=O)c4ccc5c(c4)[C@](C)(C#N)COC5)cc3n2)cnn1C1COC1 [Compound 187] shows Emax of no less than 90%? Condition not met
